tested on: PXR homodimer (NR concentration 270 nM); assay: PBM binding z-score (relative to random genomic background probes); higher = stronger binding; sequences stand for … in GC…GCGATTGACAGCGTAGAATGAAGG
Observation Type: PBM binding z-score
Response field accepts a number only; no unit should be typed.

Quick note, PBM binding z-score for "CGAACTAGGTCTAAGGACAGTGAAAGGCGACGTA" landed at -0.563

Quick note, PBM binding z-score for "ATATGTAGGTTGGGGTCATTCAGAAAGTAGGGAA" landed at 3.64

Quick note, PBM binding z-score for "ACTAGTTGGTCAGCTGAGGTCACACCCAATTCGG" landed at 1.25

Quick note, PBM binding z-score for "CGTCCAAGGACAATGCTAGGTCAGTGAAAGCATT" landed at 0.0712

Quick note, PBM binding z-score for "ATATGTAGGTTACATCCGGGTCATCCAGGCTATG" landed at 1.14

Quick note, PBM binding z-score for "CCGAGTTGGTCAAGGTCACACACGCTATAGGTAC" landed at 5.4

Quick note, PBM binding z-score for "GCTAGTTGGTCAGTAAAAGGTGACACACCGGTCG" landed at -0.523

Quick note, PBM binding z-score for "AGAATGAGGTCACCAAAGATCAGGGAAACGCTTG" landed at 1.12

====

tested on: PPARa:RXRa (NR concentration 270 nM, RXRa partner concentration 90 nM); experiment: PBM binding z-score (relative to random genomic background probes); higher = stronger binding; sequences stand for … in GC…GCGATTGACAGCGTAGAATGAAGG
Give PBM binding z-score for every item shown.

Quick note, PBM binding z-score for "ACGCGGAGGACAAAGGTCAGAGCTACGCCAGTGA" landed at 4.75

Quick note, PBM binding z-score for "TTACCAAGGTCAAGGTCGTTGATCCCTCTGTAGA" landed at 5.9

Quick note, PBM binding z-score for "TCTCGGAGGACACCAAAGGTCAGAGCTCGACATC" landed at 3.65

Quick note, PBM binding z-score for "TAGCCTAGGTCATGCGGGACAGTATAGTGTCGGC" landed at 3.53

Quick note, PBM binding z-score for "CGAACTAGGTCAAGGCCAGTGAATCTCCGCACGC" landed at 5.04

Quick note, PBM binding z-score for "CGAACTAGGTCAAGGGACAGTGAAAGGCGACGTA" landed at 4.78

Quick note, PBM binding z-score for "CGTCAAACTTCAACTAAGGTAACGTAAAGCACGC" landed at 0.493

Quick note, PBM binding z-score for "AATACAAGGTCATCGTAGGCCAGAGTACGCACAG" landed at 5.75

Quick note, PBM binding z-score for "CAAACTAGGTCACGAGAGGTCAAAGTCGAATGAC" landed at 6.78

Quick note, PBM binding z-score for "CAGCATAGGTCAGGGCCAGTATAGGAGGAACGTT" landed at 3.86

Quick note, PBM binding z-score for "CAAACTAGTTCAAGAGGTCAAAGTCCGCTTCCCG" landed at 5.38

Quick note, PBM binding z-score for "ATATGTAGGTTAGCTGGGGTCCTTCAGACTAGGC" landed at 2.78

Quick note, PBM binding z-score for "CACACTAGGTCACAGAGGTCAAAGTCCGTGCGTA" landed at 6.51

Quick note, PBM binding z-score for "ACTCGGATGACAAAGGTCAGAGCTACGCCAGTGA" landed at 4.38

Quick note, PBM binding z-score for "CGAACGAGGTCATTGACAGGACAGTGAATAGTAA" landed at 6.13

Quick note, PBM binding z-score for "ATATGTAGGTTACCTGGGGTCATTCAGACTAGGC" landed at 5.73

Quick note, PBM binding z-score for "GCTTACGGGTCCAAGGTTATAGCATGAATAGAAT" landed at 1.78

Quick note, PBM binding z-score for "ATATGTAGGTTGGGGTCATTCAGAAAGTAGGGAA" landed at 6.11

Quick note, PBM binding z-score for "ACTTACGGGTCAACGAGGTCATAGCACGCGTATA" landed at 6.12

Quick note, PBM binding z-score for "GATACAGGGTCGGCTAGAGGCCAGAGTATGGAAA" landed at 1.36

Quick note, PBM binding z-score for "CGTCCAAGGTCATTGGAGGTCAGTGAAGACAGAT" landed at 5.85

Quick note, PBM binding z-score for "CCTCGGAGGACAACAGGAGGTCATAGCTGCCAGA" landed at 3.13

Quick note, PBM binding z-score for "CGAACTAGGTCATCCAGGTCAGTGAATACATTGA" landed at 5.17

Quick note, PBM binding z-score for "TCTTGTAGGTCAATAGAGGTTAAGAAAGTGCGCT" landed at 5.13

Quick note, PBM binding z-score for "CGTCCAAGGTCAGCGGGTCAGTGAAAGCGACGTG" landed at 4.79

Quick note, PBM binding z-score for "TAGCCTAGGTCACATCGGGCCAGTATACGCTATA" landed at 3.16
